TEST_SUMMARY: Lipid nanoparticle size and polydispersity by dynamic light scattering
Assay type: physicochemical
EXPERIMENTAL_PARAMETERS: LNP of lipid/DSPC/cholesterol/PEG-lipid 50:10:38.5:1.5 encapsulating hEPO mRNA
Experimental: Briefly, a cationic lipid provided herein, DSPC, cholesterol, and PEG-lipid were solubilized in ethanol at a molar ratio of 50:10:38.5:1.5, and mRNA were diluted in 10 to 50 mM citrate buffer, pH=4. […] Lipid nanoparticle size were determined by dynamic light scattering using a Malvern Zetasizer Nano ZS (Malvern UK) using a […] backscatter detection mode. […]
Task for the reader: assign each of the following compounds its reported size (nm).
The answer is to be given in nm; state only the numeric part.

// size (nm) lookup, key: CCCCCCCCC(CCCCCC)COC(=O)CCCCCN(CCO)CCN(CCCCC(COC(=O)CCCCCCC)COC(=O)CCCCCCC)C1CCCCC1 (stereo not shown)
59.97

Cool, now CCCCCCCCCCCOC(=O)CCCCCN(CCN(CCO)CCCCCCCC(=O)OCC(CCCCCCCC)CCCCCCCC)C1CCCCC1
73.5

Cool, now CCCCCCCCC(CCCCCCCC)COC(=O)CCCCCN(CCC)CCN(CCCCCC(=O)OCC(CCCCCCCC)CCCCCCCC)C1CCC(O)CC1 (stereo not shown)
67.63

Cool, now CCCCCCCCC(CCCCCC)CNC(=O)CCCCCCCN(CCO)CCN(CCCCC(COC(=O)CCCCCCC)COC(=O)CCCCCCC)C1CCCC1 (stereo not shown)
67.07

Cool, now CCCCCCCCC(CCCCCC)CNC(=O)CCCCCN(CCCCN(CCO)CCCCC(COC(=O)CCCCCCC)COC(=O)CCCCCCC)C1CCCCC1 (stereo not shown)
70.01

Cool, now CCCCCCCC(=O)OCC(COCCN(CCO)CCN(CCOCC(COC(=O)CCCCCCC)COC(=O)CCCCCCC)C1CCCCC1)COC(=O)CCCCCCC
103.40

Cool, now CCCCCCCCCCCOC(=O)CCCCCN1CCC(N(CCO)CCCCCCCC(=O)OC(CCCCCCCC)CCCCCCCC)CC1
78.27

Cool, now CCCCCCCCCCCOC(=O)CCCCCN(CCN(CCO)CCCCC(COC(=O)CCCCCCC)COC(=O)CCCCCCC)C1CCCC1
103.2

Cool, now CCCCCCCCCCCOC(=O)CCCCCN(CCN(CCO)CCOCCC(=O)OCC(CCCCCCCC)CCCCCCCC)C1CCC1
81.25

Cool, now CCCCCCCCC(CCCCCC)CNC(=O)CCCCCCCN(CCO)CCN(CCCCC(COC(=O)CCCCCCC)COC(=O)CCCCCCC)C1CCCCCCC1 (stereo not shown)
67.78

Cool, now CCCCCCCCC(CCCCCCCC)COC(=O)CCCCCN(CC=C(C)C)CCN(CCO)CCCCCC(=O)OCC(CCCCCCCC)CCCCCCCC
66.04

Cool, now CCCCCCCCC(CCCCCCCC)CNC(=O)CCCCCN(CCO)CCN(CCCCCC(=O)OCC(CCCCCCCC)CCCCCCCC)C1CCC1
65.95

Cool, now CCCCCCCCC(CCCCCC)CC(=O)OCCCCCN(CCO)CCN(CCCCCN(C)C(=O)CC(CCCCCC)CCCCCCCC)C1CCCCCC1 (stereo not shown)
85.76
